tgt: equine FcRn (large alpha subunit p51) / equine beta-2-microglobulin complex, biotinylated (equine) (UniProt P30441)
procedure text: SPR (Biacore), pH 6
measured endpoint: Kd (nM)
API: value field is a number in nM; no unit string.

A selection of reference data follows.
*Q* Param item = equine IgG4 K311D (antibody, part only; not given: variable domains, not shown: another chain or arm of the molecule; small tags and cut ends) constant: ASTTAPKVFPLASHSAATSGSTVALGCLVSSYFPEPVTVSWNSGALTSGVHTFPSVLQSSGLYSLSSMVTVPASSLKSQTYICNVAHPASSTKVDKKIVIKECNGGCPAECLQVGPSVFIFPPKPKDVLMISRTPTVTCVVVDVGHDFPDVQFNWYVDGVETHTATTEPKQEQFNSTYRVVSVLPIQHDDWLSGKEFKCKVNNKALPAPVERTISKPTGQPREPQVYVLAPHRDELSKNKVSVTCLVKDFYPTDIDIEWKSNGQPEPETKYSTTPAQLDSDGSYFLYSKLTVETNRWQQGTTFTCAVMHEALHNHYTEKSVSKSPGK ; retrieve measured Kd.
*A* 64.3

*Q* Param item = equine IgG1 Q311L (antibody, part only; not given: Variable domains, not shown: another chain or arm of the molecule) constant: ASTTAPKVFALAPGCGTTSDSTVALGCLVSGYFPEPVKVSWNSGSLTSGVHTFPSVLQSSGFYSLSSMVTVPASTWTSETYICNVVHAASNFKVDKRIEPIPDNHQKVCDMSKCPKCPAPELLGGPSVFIFPPNPKDTLMITRTPEVTCVVVDVSQENPDVKFNWYMDGVEVRTATTRPKEEQFNSTYRVVSVLRIQHLDWLSGKEFKCKVNNQALPQPIERTITKTKGRSQEPQVYVLAPHPDELSKSKVSVTCLVKDFYPPEINIEWQSNGQPELETKYSTTQAQQDSDGSYFLYSKLSVDRNRWQQGTTFTCGVMHEALHNHYTQKNVSKNPGK ; retrieve measured Kd.
*A* 16.1

*Q* Param item = equine IgG1 D312C (antibody, part only; not given: variable domains, not shown: another chain or arm of the molecule) constant: ASTTAPKVFALAPGCGTTSDSTVALGCLVSGYFPEPVKVSWNSGSLTSGVHTFPSVLQSSGFYSLSSMVTVPASTWTSETYICNVVHAASNFKVDKRIEPIPDNHQKVCDMSKCPKCPAPELLGGPSVFIFPPNPKDTLMITRTPEVTCVVVDVSQENPDVKFNWYMDGVEVRTATTRPKEEQFNSTYRVVSVLRIQHQCWLSGKEFKCKVNNQALPQPIERTITKTKGRSQEPQVYVLAPHPDELSKSKVSVTCLVKDFYPPEINIEWQSNGQPELETKYSTTQAQQDSDGSYFLYSKLSVDRNRWQQGTTFTCGVMHEALHNHYTQKNVSKNPGK ; retrieve measured Kd.
*A* 21

The record that follows has no Kd shown yet.
*Q* Param item = equine IgG1 M428N (antibody, part only; not given: Variable domains, not shown: another chain or arm of the molecule) constant: ASTTAPKVFALAPGCGTTSDSTVALGCLVSGYFPEPVKVSWNSGSLTSGVHTFPSVLQSSGFYSLSSMVTVPASTWTSETYICNVVHAASNFKVDKRIEPIPDNHQKVCDMSKCPKCPAPELLGGPSVFIFPPNPKDTLMITRTPEVTCVVVDVSQENPDVKFNWYMDGVEVRTATTRPKEEQFNSTYRVVSVLRIQHQDWLSGKEFKCKVNNQALPQPIERTITKTKGRSQEPQVYVLAPHPDELSKSKVSVTCLVKDFYPPEINIEWQSNGQPELETKYSTTQAQQDSDGSYFLYSKLSVDRNRWQQGTTFTCGVNHEALHNHYTQKNVSKNPGK ; retrieve measured Kd.
*A* 51.6
